# maps each entry to its pKd
Target: T1, murine NRP1 (mouse, UniProt P97333)
T1 chain: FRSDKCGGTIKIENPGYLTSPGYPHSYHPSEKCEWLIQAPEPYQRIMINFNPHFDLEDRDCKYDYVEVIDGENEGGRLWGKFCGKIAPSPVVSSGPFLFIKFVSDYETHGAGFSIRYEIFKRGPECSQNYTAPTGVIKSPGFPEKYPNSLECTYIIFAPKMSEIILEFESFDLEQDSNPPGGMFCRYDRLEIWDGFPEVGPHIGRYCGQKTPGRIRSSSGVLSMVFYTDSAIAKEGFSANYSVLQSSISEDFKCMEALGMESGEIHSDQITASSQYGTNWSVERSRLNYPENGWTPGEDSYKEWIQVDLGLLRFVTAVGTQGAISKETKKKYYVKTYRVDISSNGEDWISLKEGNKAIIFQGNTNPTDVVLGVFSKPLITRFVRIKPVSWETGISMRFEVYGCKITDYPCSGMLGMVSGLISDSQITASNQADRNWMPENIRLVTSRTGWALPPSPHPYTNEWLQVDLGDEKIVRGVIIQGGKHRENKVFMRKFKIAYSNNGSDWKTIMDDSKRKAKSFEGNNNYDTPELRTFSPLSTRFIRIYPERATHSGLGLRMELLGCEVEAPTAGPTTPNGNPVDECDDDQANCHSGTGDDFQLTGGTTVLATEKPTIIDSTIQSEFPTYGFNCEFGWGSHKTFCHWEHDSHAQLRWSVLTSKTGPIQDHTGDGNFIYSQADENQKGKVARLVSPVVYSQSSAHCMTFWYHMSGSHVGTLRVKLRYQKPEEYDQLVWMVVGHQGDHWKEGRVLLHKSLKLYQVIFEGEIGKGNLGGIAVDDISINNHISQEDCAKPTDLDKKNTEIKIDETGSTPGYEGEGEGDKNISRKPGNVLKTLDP
Test: SPR 25C
pKd: −log10 of the molar value.
MEASURED_PROPERTY: pKd

{"BINDER": "YW107.4.18 (antibody, V domains shown) VH: EVQLVESGGGLVQPGGSLRLSCAASGFTFSSYAMSWVRQAPGKGLEWVSQISPAGGYTNYADSVKGRFTISADTSKNTAYLQMNSLRAEDTAVYYCARELPYYRMSKVMDVWGQGTLVTVSS VL: DIQMTQSPSSLSASVGDRVTITCRASQYFSSYLAWYQQKPGKAPKLLIYGASTHESGVPSRFSGSGSGTDFTLTISSLQPEDFATYYCQQYIRSPLTFGQGTKVEIKR", "NUMERIC_READOUT": 8.68}
{"BINDER": "YW107.4.52 (antibody, V domains shown) VH: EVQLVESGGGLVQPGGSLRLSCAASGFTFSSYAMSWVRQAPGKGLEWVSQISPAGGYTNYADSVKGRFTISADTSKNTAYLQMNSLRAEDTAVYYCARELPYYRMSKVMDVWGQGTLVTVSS VL: DIQMTQSPSSLSASVGDRVTITCRASQYFSSYLAWYQQKPGKAPKLLIYGASTLASGVPSRFSGSGSGTDFTLTISSLQPEDFATYYCQQYIRSPLTFGQGTKVEIKR", "NUMERIC_READOUT": 8.92}
{"BINDER": "YW107.4.38 (antibody, V domains shown) VH: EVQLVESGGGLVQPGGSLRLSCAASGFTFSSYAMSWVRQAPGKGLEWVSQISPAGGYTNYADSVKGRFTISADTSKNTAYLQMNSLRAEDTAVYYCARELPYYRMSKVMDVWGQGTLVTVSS VL: DIQMTQSPSSLSASVGDRVTITCRASQYLSSYLAWYQQKPGKAPKLLIYGASSRASGVPSRFSGSGSGTDFTLTISSLQPEDFATYYCQQYLRSPITFGQGTKVEIKR", "NUMERIC_READOUT": 8.49}
{"BINDER": "YW107.4.63 (antibody, V domains shown) VH: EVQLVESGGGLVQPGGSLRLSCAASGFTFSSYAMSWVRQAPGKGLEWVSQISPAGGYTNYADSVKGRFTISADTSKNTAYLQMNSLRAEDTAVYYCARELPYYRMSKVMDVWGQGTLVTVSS VL: DIQMTQSPSSLSASVGDRVTITCRASQYLSSYLAWYQQKPGKAPKLLIYGASSSESGVPSRFSGSGSGTDFTLTISSLQPEDFATYYCQQYISVPLTFGQGTKVEIKR", "NUMERIC_READOUT": 9.10}
{"BINDER": "YW107.4.76a (antibody, V domains shown) VH: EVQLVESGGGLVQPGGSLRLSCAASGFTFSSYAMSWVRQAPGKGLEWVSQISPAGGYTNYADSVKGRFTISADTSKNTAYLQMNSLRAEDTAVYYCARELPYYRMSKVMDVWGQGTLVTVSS VL: DIQMTQSPSSLSASVGDRVTITCRASQYISSYLAWYQQKPGKAPKLLIYGASRRASGVPSRFSGSGSGTDFTLTISSLQPEDFATYYCQQYLRSPHTFGQGTKVEIKR", "NUMERIC_READOUT": 7.51}
{"BINDER": "YW107.4 (antibody, V domains shown) VH: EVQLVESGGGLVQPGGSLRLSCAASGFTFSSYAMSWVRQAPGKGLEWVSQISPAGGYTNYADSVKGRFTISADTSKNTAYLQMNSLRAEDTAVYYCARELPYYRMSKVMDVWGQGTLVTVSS VL: DIQMTQSPSSLSASVGDRVTITCRASQSISSYLAWYQQKPGKAPKLLIYGASSRASGVPSRFSGSGSGTDFTLTISSLQPEDFATYYCQQYYSSPLTFGQGTKVEIKR", "NUMERIC_READOUT": 7.96}

FYI, the data here is from patent US8211429.
